pancreatic lipase (Homo sapiens): recorded IC50 for assorted molecules
Sequence (P16233 17-465, species assumed): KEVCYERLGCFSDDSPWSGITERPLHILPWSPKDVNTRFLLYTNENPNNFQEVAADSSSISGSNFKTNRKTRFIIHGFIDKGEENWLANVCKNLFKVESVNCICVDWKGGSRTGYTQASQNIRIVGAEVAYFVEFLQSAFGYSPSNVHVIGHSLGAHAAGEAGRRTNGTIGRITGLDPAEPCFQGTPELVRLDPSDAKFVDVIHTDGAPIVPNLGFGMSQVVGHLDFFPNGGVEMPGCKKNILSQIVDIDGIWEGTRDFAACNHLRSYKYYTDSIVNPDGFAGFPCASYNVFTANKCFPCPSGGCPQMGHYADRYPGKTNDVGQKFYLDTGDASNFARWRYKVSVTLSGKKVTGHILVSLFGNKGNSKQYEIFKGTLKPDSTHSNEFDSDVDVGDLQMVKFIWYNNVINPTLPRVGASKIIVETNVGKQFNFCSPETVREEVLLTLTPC
readout: IC50 (mM)

smiles_str: O=C(O)/C=C/c1ccc(O)c(O)c1
readout: IC50
value_observed: 4.03
//
smiles_str: O=C(O)c1cc(O)c(O)c(O)c1
readout: IC50
value_observed: 3.66
//
smiles_str: O=C(O)c1ccc(O)c(O)c1
readout: IC50
value_observed: 4.37
